Sourced from paper PMC4324634

# Tested on: Bacillus cereus (ATCC 11778)
# Details: ATCC 11778, 3 h, pH 7.4
Where no end group is shown, it is not given here.
Property name: EC50 (µM)
Could you give me the number in µM? Just the number is fine.

According to the records, this sequence YSLKKTSMKIIPFTRL [FGG398–413] displays EC50 of 9.35

Notebook: FSTKTRNWFSEHFKKVKEKLKDTFA [APOC1_64–88] , EC50 read as 0.245

Data point: KTRNWFSEHFKKVKEKLKDTFA [APOC1_67–88] ; EC50 = 0.21

What the record says about KKTSMKIIPFTRL [FGG401–413] : EC50 is 18.7
